- Assay Method Text: Human HepG2 cell viability assay in 384 well format
- Assay type: toxicity, cell-based
- Set-up: dose 125 nL, time 70.5 hour; concentration not given beside the values
- Protocol Conditions: HepG2 cells, read-out: Inhibition
Parameter Measured: cytotoxicity at 70.5 h (%)
Report only the number, with the unit % understood.

Example molecules with recorded cytotoxicity at 70.5 h:
Q: Data request, read-out cytotoxicity at 70.5 h, for "Cn1nnnc1SCCNC1CCN(c2ccc3c(c2)OCO3)CC1"
Ans: 4.51

Q: Data request, read-out cytotoxicity at 70.5 h, for "CCN(CC)c1ncc(Cl)c(C(=O)NC2CC2)n1"
Ans: -0.0542

Q: Data request, read-out cytotoxicity at 70.5 h, for O=C(c1cc(Cl)c[nH]1)N1CCCC(c2cc(C(F)(F)F)[nH]n2)C1 (configuration not stated)
Ans: 3.82

Q: Data request, read-out cytotoxicity at 70.5 h, for "COc1ccccc1C1(NCc2c(C)nc3c(C)cccn23)CCCC1"
Ans: 24.9

Q: Data request, read-out cytotoxicity at 70.5 h, for "O=C(NCc1nnc2n1CCC2)NCC1(c2cccc(F)c2)CC1"
Ans: -5.65

---
Q: Data request, read-out cytotoxicity at 70.5 h, for "CC(C)c1nnc2ccc(N3CCC(C(=O)NC4CC4)CC3)nn12"
Ans: -25

Q: Data request, read-out cytotoxicity at 70.5 h, for "C[C@H]1CN(c2ccccn2)C[C@@]12CCN(c1cccnc1)C2=O"
Ans: -2.67

Q: Data request, read-out cytotoxicity at 70.5 h, for "O=C1CCOCCN1Cc1ccc(Cl)c(Cl)c1"
Ans: 33.5

Q: Data request, read-out cytotoxicity at 70.5 h, for "CN(Cc1nnn(CC2CCC2)n1)C(=O)c1ccccc1"
Ans: -2.78

Q: Data request, read-out cytotoxicity at 70.5 h, for O=C1N(CC2CC2)CCC12CCCN(c1ncc(F)cn1)C2 (configuration not stated)
Ans: -3.11

Q: Data request, read-out cytotoxicity at 70.5 h, for "O=C(Cc1ccccc1)NCCNCc1cccc(O)c1"
Ans: 36.6

Q: Data request, read-out cytotoxicity at 70.5 h, for CN1CCN(c2cc(N3CCCC3CO)ncn2)Cc2ccccc21 (configuration not stated)
Ans: 17.8

* * *

# Lookup of reported cytotoxicity at 70.5 h keyed by entry
- Assay Method Text: Human HepG2 cell viability assay in 384 well format
- Assay type: toxicity, cell-based
- Design: dose 125 nL, time 70.5 hour; concentration not given beside the values
- Protocol Conditions: HepG2 cells, read-out: Inhibition
Report only the number, with the unit % understood.

Example compounds with recorded cytotoxicity at 70.5 h:
Q: Data request, read-out cytotoxicity at 70.5 h, for "CNCc1ccc([C@@H]2CN(C)C[C@H]2C(N)=O)cc1"
Ans: 19.9

Q: Data request, read-out cytotoxicity at 70.5 h, for "Cc1nc(-c2cccs2)ccc1C(=O)N1CCN(CCO)CC1"
Ans: 0.744

Q: Data request, read-out cytotoxicity at 70.5 h, for "COCCCN(Cc1ccncc1)c1ncc(C#N)cc1Cl"
Ans: -0.375

Q: Data request, read-out cytotoxicity at 70.5 h, for CCc1csc(C2CCCN(C(=O)c3cnn(CC)c3)C2)n1 (configuration not stated)
Ans: 6.03

Q: Data request, read-out cytotoxicity at 70.5 h, for "COc1ccc(CNC(=O)Nc2cccnc2N2CCCC2)cc1OC"
Ans: 20.8

Q: Data request, read-out cytotoxicity at 70.5 h, for "CCC(=O)N1CCN(C(=O)NCc2c(C)cc(C)cc2C)CC1"
Ans: -11.6

---
Q: Data request, read-out cytotoxicity at 70.5 h, for Cc1ccc(-c2nc(CN3CCCC(C(=O)N(C)C)C3)cs2)o1 (configuration not stated)
Ans: 1.88

Q: Data request, read-out cytotoxicity at 70.5 h, for "CCc1cc(N2CCCNCC2)n2nc(C)c(C)c2n1"
Ans: -5.51

Q: Data request, read-out cytotoxicity at 70.5 h, for COCC(C)(C#N)NC(=O)COc1ccccc1 (configuration not stated)
Ans: -0.947

Q: Data request, read-out cytotoxicity at 70.5 h, for CC(=O)N1CCN(C(=O)Nc2ccccc2)CC2(CC(=O)N(C)C2)C1 (configuration not stated)
Ans: 26.3

Q: Data request, read-out cytotoxicity at 70.5 h, for "Cc1nn(C)c(N(C)C)c1CNCc1ccccc1Cn1cccn1"
Ans: -2.08

Q: Data request, read-out cytotoxicity at 70.5 h, for "Cc1cncc(C2CCN(Cc3ccc(S(C)(=O)=O)cc3)CC2)n1"
Ans: -9.92

Q: Data request, read-out cytotoxicity at 70.5 h, for "Cc1nonc1-c1nc(C(C)C)nn1-c1ccc2c(c1)OCO2"
Ans: -3.15

Q: Data request, read-out cytotoxicity at 70.5 h, for CCC1(CO)CCCN(c2ncccc2C#N)C1 (configuration not stated)
Ans: 15.7

Q: Data request, read-out cytotoxicity at 70.5 h, for CSc1cccc(CN(C)C(=O)C2CC(=O)N(CCN(C)C)C2)c1 (configuration not stated)
Ans: 5.8
